studySystem: Nucleotide-binding oligomerization domain-containing protein 2 (Homo sapiens, UniProt Q9HC29)
Sequence (Q9HC29 whole entry, the tested form may be a part): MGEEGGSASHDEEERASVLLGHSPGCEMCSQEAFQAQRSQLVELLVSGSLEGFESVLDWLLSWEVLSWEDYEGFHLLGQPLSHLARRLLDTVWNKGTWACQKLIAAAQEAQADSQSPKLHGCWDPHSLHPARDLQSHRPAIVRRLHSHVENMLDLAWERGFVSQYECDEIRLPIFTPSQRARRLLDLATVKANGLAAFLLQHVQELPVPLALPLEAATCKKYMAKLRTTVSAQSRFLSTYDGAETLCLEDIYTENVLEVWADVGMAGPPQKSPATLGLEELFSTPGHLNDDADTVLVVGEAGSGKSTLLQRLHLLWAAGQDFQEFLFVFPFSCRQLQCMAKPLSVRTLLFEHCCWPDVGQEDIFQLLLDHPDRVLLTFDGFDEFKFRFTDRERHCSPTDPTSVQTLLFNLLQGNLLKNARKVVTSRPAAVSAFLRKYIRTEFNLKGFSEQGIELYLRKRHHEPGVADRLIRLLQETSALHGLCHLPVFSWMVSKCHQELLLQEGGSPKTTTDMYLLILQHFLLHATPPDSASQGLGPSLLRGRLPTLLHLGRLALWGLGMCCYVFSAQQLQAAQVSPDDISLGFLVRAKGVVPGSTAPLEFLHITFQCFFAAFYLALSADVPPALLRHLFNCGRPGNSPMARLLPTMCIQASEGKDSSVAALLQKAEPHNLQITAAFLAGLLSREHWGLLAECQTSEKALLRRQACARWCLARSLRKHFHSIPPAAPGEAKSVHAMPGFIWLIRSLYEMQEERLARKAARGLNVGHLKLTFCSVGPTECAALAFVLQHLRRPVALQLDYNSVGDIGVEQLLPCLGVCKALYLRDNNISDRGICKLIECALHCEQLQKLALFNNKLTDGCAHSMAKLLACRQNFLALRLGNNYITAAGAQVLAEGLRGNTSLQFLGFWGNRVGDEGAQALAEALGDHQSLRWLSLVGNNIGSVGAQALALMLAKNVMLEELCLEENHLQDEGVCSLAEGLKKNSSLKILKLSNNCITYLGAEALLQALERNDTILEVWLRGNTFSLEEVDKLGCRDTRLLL
protocolSummary: Antagonist activity at NOD2 in HEK-Blue hNOD2 cells assessed as inhibition of MDP-induced NFkappaB activation-mediated SEAP release preincubated for 3 hrs followed by MDP addition and measured after 20 hrs by spectrophotometric method
Assay type: cell-based
pIC50: −log10 of the molar value.
Lab note: anything with pIC50 at or over 6 counts as condition met; the rest go in condition not met.

Hi team, for "CN(C)c1cccc(Oc2cc3c(=O)n(CC(=O)N4CCCCC4)cnc3cc2NC(=O)COCc2ccc(C(F)(F)F)cc2)c1" , is the recorded pIC50 at or above 6?
condition not met

Can "COC(=O)Cn1cnc2cc(NC(=O)COCc3ccc(C(F)(F)F)cc3)c(Oc3cccc(N4CCOCC4)c3)cc2c1=O" be said to have pIC50 at or above 6?
condition met

---

studySystem: Nucleotide-binding oligomerization domain-containing protein 2 (Homo sapiens)
protocolSummary: Antagonist activity at NOD2 in HEK-Blue hNOD2 cells assessed as inhibition of MDP-induced NFkappaB activation-mediated SEAP release at 5 uM preincubated for 3 hrs followed by MDP addition and measured after 20 hrs by spectrophotometric method relative to control
Format: cell-based
measurementContext: filed as antagonist, time 23.0 hrs
Label true (1) for high-side inhibition (at or above 80%) and false (0) for low-side inhibition (below it).

Kindly determine if inhibition recorded for "CN(C)c1cccc(Oc2cc3c(=O)[nH]cnc3cc2NC(=O)COCc2ccc(C(F)(F)F)cc2)c1" is above or exactly 80%.
false (0)

Could you tell me if the measured inhibition of "COC(=O)Cn1cnc2cc(NC(=O)COCc3ccc(F)cc3)c(Oc3cccc(N(C)C)c3)cc2c1=O" reaches 80% or more?
false (0)

Kindly determine if inhibition recorded for "CN(C)c1cccc(Oc2cc3c(=O)n(CC(=O)N4CCC(F)(F)CC4)cnc3cc2NC(=O)COCc2ccc(C(F)(F)F)cc2)c1" is above or exactly 80%.
true (1)

Item "CN(C)c1cccc(Oc2cc3c(=O)n(CC(=O)N4CCCC(F)(F)C4)cnc3cc2NC(=O)COCc2ccc(C(F)(F)F)cc2)c1" with inhibition of 80% or above?
true (1)

// inclusive: inhibition at least 80%? input: "CN(C)c1cccc(Oc2cc3c(=O)n(CC(=O)N4CCC(F)CC4)cnc3cc2NC(=O)COCc2ccc(C(F)(F)F)cc2)c1"
true (1)

# check: inhibition of "COC(=O)Cn1cnc2cc(NC(=O)COCc3ccc(C(F)(F)F)cc3)c(Oc3cccc(N(C)C)c3)cc2c1=O" is greater than or equal to 80%
false (0)

Is inhibition for "CN(C)c1cccc(Oc2cc3c(=O)n(CC(=O)N4CCCCC4)cnc3cc2NC(=O)COCc2ccc(C(F)(F)F)cc2)c1" at or above 80%?
true (1)

Reported inhibition reaches at least 80% for "CN(C)c1cccc(Oc2cc3c(=O)[nH]cnc3cc2NC(=O)CCCOc2ccc(C(F)(F)F)cc2)c1" ?
false (0)

Decide: is the reported value of inhibition for "COC(=O)Cn1cnc2cc(NC(=O)COCc3ccc(C#N)cc3)c(Oc3cccc(N(C)C)c3)cc2c1=O" equal to or greater than 80%?
false (0)

---

protocolSummary: Half life in mouse liver microsomes at 1.25 uM preincubated for 5 mins followed by NADPH generating system addition and measured for 120 mins by LC-MS/MS analysis
Type: ADME, Microsome
Kindly supply the reported half-life at 1.25 µM values for the records listed here.
Kindly answer with a numeric value in min, unit omitted.

Param item = "O=C(NCCOCc1ccc(C(F)(F)F)cc1)c1cc2nc[nH]c(=O)c2cc1-c1cccc(Cl)c1" ; retrieve measured half-life at 1.25 µM.
22.9

Query (compound): "O=C(NCCCOc1ccc(C(F)(F)F)cc1)c1cc2ncn(CC(=O)N3CCCC(F)(F)C3)c(=O)c2cc1-c1cccc(Cl)c1" ; field requested: half-life at 1.25 µM
67.7

Recorded half-life at 1.25 µM for "O=C(CCCOc1ccc(C(F)(F)F)cc1)Nc1cc2nc[nH]c(=O)c2cc1Oc1cccc(N2CCOCC2)c1" , please?
10.1

Fill in: half-life at 1.25 µM of "COC(=O)Cn1cnc2cc(NC(=O)CCCOc3ccc(C(F)(F)F)cc3)c(Oc3cccc(N4CCOCC4)c3)cc2c1=O" is ___
9.6

What does the data say about its half-life at 1.25 µM? Entry: "O=C(NCCCOc1ccc(C(F)(F)F)cc1)c1cc2ncn(CC(=O)N3CCCCC3)c(=O)c2cc1-c1cccc(Cl)c1"
15.6

Return reported half-life at 1.25 µM; argument: "O=C(COCc1ccc(C(F)(F)F)cc1)Nc1cc2ncn(CC(=O)N3CCCC(F)(F)C3)c(=O)c2cc1Oc1cccc(N2CCOCC2)c1"
12.9

Name the reported half-life at 1.25 µM value associated with the compound "O=C(O)Cn1cnc2cc(C(=O)NCCCOc3ccc(C(F)(F)F)cc3)c(-c3cccc(Cl)c3)cc2c1=O"
22.9

---

studySystem: Nucleotide-binding oligomerization domain-containing protein 1 (Homo sapiens, UniProt Q9Y239)
Sequence (Q9Y239 whole entry, the tested form may be a part): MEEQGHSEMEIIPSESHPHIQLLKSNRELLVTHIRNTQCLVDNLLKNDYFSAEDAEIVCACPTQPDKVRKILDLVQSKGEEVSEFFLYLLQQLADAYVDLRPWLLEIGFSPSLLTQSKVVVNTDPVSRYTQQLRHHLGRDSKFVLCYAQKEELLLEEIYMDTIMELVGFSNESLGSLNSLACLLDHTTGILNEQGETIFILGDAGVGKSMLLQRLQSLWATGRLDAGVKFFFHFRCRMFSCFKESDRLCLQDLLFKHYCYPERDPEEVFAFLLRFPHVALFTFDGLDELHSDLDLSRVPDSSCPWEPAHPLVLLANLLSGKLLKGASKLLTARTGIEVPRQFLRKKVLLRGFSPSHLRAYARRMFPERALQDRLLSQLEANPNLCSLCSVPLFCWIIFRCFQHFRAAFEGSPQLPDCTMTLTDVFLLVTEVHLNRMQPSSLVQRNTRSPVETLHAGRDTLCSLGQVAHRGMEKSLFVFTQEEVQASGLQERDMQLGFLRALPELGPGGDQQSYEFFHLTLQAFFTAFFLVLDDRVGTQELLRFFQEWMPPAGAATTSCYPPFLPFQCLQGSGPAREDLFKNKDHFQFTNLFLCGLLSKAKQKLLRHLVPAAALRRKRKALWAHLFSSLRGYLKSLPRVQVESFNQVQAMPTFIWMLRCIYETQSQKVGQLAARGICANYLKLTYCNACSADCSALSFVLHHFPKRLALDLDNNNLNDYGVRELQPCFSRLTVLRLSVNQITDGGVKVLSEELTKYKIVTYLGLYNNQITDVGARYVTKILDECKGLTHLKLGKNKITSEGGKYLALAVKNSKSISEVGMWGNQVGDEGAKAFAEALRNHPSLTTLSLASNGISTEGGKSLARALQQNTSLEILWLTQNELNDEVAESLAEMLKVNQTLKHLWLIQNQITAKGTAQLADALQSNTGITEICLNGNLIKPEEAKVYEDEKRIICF
protocolSummary: Antagonist activity at NOD1 in HEK-Blue hNOD1 cells assessed as inhibition of C12-iE-DAP-induced NFkappaB activation-mediated SEAP release preincubated for 3 hrs followed by C12-iE-DAP addition and measured after 20 hrs by spectrophotometric method
Format: cell-based
Provide the reported log10(IC50) of each item.
Give log10 of IC50, with IC50 taken in µM.

Data request, read-out log10(IC50), for "COC(=O)Cn1cnc2cc(NC(=O)CCCOc3ccc(C(F)(F)F)cc3)c(Oc3cccc(N4CCOCC4)c3)cc2c1=O"
0.14

Consider the compound "O=C(NCCCOc1ccc(C(F)(F)F)cc1)c1cc2ncn(CC(=O)N3CCCCC3)c(=O)c2cc1-c1cccc(Cl)c1" and give its measured log10(IC50).
-0.10

Request the reported log10(IC50) associated with "COC(=O)Cn1cnc2cc(NC(=O)CCCOc3ccc(C(F)(F)F)cc3)c(Oc3cccc(N(C)C)c3)cc2c1=O"
0.42

What measured log10(IC50) goes with "CN(C)c1cccc(Oc2cc3c(=O)n(CC(=O)N4CCC(F)(F)CC4)cnc3cc2NC(=O)COCc2ccc(C(F)(F)F)cc2)c1" ?
-0.57

If you can, please state the reported log10(IC50) value of "O=C(NCCOCc1ccc(C(F)(F)F)cc1)c1cc2nc[nH]c(=O)c2cc1-c1cccc(C(F)(F)F)c1" .
0.64

# query: log10(IC50) of entry "CN(C)c1cccc(Oc2cc3c(=O)n(CC(=O)N4CCCC(F)(F)C4)cnc3cc2NC(=O)COCc2ccc(C(F)(F)F)cc2)c1"
-0.85

Query (compound): "COC(=O)Cn1cnc2cc(NC(=O)COCc3ccc(C(F)(F)F)cc3)c(Oc3cccc(N(C)C)c3)cc2c1=O" ; field requested: log10(IC50)
0.06

Quick check: log10(IC50) of "CN(C)c1cccc(Oc2cc3c(=O)[nH]cnc3cc2NC(=O)COCc2ccc(C#N)cc2)c1" ?
0.97

I'd like to know its log10(IC50). The compound in question is "COC(=O)Cn1cnc2cc(C(=O)NCCCOc3ccc(C(F)(F)F)cc3)c(-c3cccc(Cl)c3)cc2c1=O"
-0.05

Can you look up the measured log10(IC50) of "O=C(NCCOCc1ccc(C(F)(F)F)cc1)c1cc2nc[nH]c(=O)c2cc1-c1cccc(Cl)c1" for me?
0.13

Which measured log10(IC50) value corresponds to "COC(=O)Cn1cnc2cc(C(=O)NCCOCc3ccc(C(F)(F)F)cc3)c(-c3cccc(F)c3)cc2c1=O" ?
0.54

Look up log10(IC50): "COC(=O)Cn1cnc2cc(NC(=O)CCCOc3ccc(C(F)(F)F)cc3)c(Oc3ccc(N(C)C)cc3)cc2c1=O"
0.59

# input compound: "O=C(NCCCOc1ccc(C(F)(F)F)cc1)c1cc2nc[nH]c(=O)c2cc1-c1cccc(Cl)c1" ; wanted: its log10(IC50)
-0.08

I am curious: what log10(IC50) value has been reported for "O=C(NCCOCc1ccc(C(F)(F)F)cc1)c1cc2nc[nH]c(=O)c2cc1-c1cccc(F)c1" ?
0.61

Which value of log10(IC50) has been reported for "COC(=O)Cn1cnc2cc(C(=O)NCCOCc3ccc(C(F)(F)F)cc3)c(-c3cccc(Cl)c3)cc2c1=O" in the records?
0.05

// returns reported log10(IC50) for input "O=C(NCCCOc1ccc(C(F)(F)F)cc1)c1cc2ncn(CC(=O)N3CCCC(F)(F)C3)c(=O)c2cc1-c1cccc(Cl)c1"
0.05

Reported log10(IC50), compound "O=C(COCc1ccc(C(F)(F)F)cc1)Nc1cc2ncn(CC(=O)N3CCCC(F)(F)C3)c(=O)c2cc1Oc1cccc(N2CCOCC2)c1" : ____
-0.27

Look up log10(IC50): "COC(=O)Cn1cnc2cc(NC(=O)COCc3ccc(C(F)(F)F)cc3)c(Oc3cccc(N4CCOCC4)c3)cc2c1=O"
-0.19
